subject_of_test: UniProtKB P25090
Sequence (P25090 whole entry): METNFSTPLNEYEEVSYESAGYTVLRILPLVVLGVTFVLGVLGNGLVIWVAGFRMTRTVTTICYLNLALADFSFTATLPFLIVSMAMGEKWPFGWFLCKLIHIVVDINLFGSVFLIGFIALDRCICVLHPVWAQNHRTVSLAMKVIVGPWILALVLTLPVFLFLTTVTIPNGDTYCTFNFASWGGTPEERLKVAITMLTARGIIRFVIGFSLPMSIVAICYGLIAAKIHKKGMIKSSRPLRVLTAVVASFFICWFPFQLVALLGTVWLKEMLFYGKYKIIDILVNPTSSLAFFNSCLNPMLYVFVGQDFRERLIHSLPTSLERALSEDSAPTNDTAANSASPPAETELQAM
assay_info: FPR2 cyclic adenosine monophosphate (cAMP) assay
Assay type: cell-based
measurement_parameters: hFPR2 Assay, CHO cells overexpressing human FPR2; potency bins; read-out: hFPR2 agonist activity EC50 values
pEC50: −log10 of the molar value.

- molecule: "CS(=O)(=O)NCC1(c2ccc(N3CCC[C@H](NC(=O)Nc4ccc(C(F)(F)F)nc4)C3=O)cc2)CCCC1"
  pEC50: "5.90 to 7.00"
- molecule: "CS(=O)(=O)NCC1(c2ccc(N3CCC[C@H](NC(=O)Nc4ccc(C(F)(F)F)cn4)C3=O)cc2)CC1"
  pEC50: "5.90 to 7.00"
- molecule: "CS(=O)(=O)NCC1(c2ccc(N3CCC[C@@H](NC(=O)Nc4ccc(Cl)cn4)C3=O)cc2)CC1"
  pEC50: "≥ 8.00"
- molecule: "COc1cnc(NC(=O)N[C@@H]2CCCN(c3ccc(C4(CNS(C)(=O)=O)CC4)c(F)c3)C2=O)cn1"
  pEC50: "≥ 8.00"
- molecule: "COc1ccc(NC(=O)N[C@@H]2CCCN(c3ccc(C4(CNS(C)(=O)=O)CC4)cc3)C2=O)nc1"
  pEC50: "≥ 8.00"
- molecule: "O=C(Nc1ccc(C(F)(F)F)nc1)N[C@@H]1CCCN(c2ccc(C3(CN4CCCC4)CC3)cc2)C1=O"
  pEC50: "5.90 to 7.00"
- molecule: "COc1cnc(NC(=O)N[C@H]2CCCN(c3ccc(C4(CNS(C)(=O)=O)CC4)cc3)C2=O)cn1"
  pEC50: "5.90 to 7.00"
- molecule: "Cc1cnc(NC(=O)N[C@@H]2CCCN(c3ccc(C4(CNS(C)(=O)=O)CCC4)cc3)C2=O)cn1"
  pEC50: "≥ 8.00"
- molecule: "CS(=O)(=O)NCC1(c2ccc(N3CCC[C@@H](NC(=O)Nc4ccc(OC(F)F)nc4)C3=O)cc2F)CC1"
  pEC50: "7.00 to 8.00"
- molecule: "O=C(Nc1ccc(C(F)(F)F)cn1)N[C@@H]1CCCN(c2ccc(C3(CN4CCOCC4)CCC3)cc2)C1=O"
  pEC50: "7.00 to 8.00"
- molecule: "CS(=O)(=O)NCC1(c2ccc(N3CCC[C@@H](NC(=O)Nc4cnc(C#N)cn4)C3=O)cc2)CC1"
  pEC50: "7.00 to 8.00"
- molecule: "CS(=O)(=O)NCC1(c2ccc(N3CCC[C@@H](NC(=O)Nc4ccc(C(F)(F)F)cn4)C3=O)cc2F)CC1"
  pEC50: "7.00 to 8.00"
- molecule: "CS(=O)(=O)NCC1(c2ccc(N3CCC[C@@H](NC(=O)Nc4ccc(OC(F)F)nc4)C3=O)cc2)CC1 [Example 38]"
  pEC50: "5.90 to 7.00"
- molecule: "CS(=O)(=O)NCC1(c2ccc(N3CCC[C@@H](NC(=O)Nc4ncc(Cl)cc4Cl)C3=O)cc2)CCC1"
  pEC50: "7.00 to 8.00"
- molecule: "CS(=O)(=O)NCC1(c2ccc(N3CCC[C@@H](NC(=O)Nc4ccc(C(F)(F)F)nc4)C3=O)cc2)CCCC1"
  pEC50: "≥ 8.00"
- molecule: "CS(=O)(=O)NCC1(c2ccc(N3CCC[C@@H](NC(=O)Nc4ncc(Cl)cc4Cl)C3=O)cc2)CC1"
  pEC50: "5.90 to 7.00"
- molecule: "CS(=O)(=O)NCC1(c2ccc(N3CCC[C@@H](NC(=O)Nc4ccc(C(F)(F)F)nc4)C3=O)cc2)CC1"
  pEC50: "≥ 8.00"
- molecule: "O=C(Nc1ccc(C(F)(F)F)nc1)N[C@@H]1CCCN(c2ccc(C3(CN4CCOCC4)CCCC3)cc2)C1=O"
  pEC50: "5.90 to 7.00"
- molecule: "N#CC1(c2ccc(N3CCC[C@H](NC(=O)Nc4ccc(C(F)(F)F)cc4)C3=O)cc2)CC1"
  pEC50: "5.90 to 7.00"
- molecule: "CS(=O)(=O)NCC1(c2ccc(N3CCC[C@@H](NC(=O)Nc4cnc(Cl)cn4)C3=O)cc2F)CC1"
  pEC50: "≥ 8.00"
- molecule: "O=C(Nc1ncc(Cl)cc1F)N[C@@H]1CCCN(c2ccc(C3(CN4CCOCC4)CC3)cc2)C1=O"
  pEC50: "5.90 to 7.00"
- molecule: "O=C(Nc1ccc(Cl)cc1)N[C@@H]1CCCN(c2ccc(C3CCOCC3)cc2)C1=O"
  pEC50: "≥ 8.00"
- molecule: "CS(=O)(=O)NCC1(c2ccc(N3CCC[C@@H](NC(=O)Nc4ccc(C(F)(F)F)nc4)C3=O)cc2)CCC1"
  pEC50: "≥ 8.00"
- molecule: "CS(=O)(=O)NCC1(c2ccc(N3C[C@H](O)C[C@@H](NC(=O)Nc4ncc(C(F)(F)F)cc4F)C3=O)cc2)CC1"
  pEC50: "7.00 to 8.00"
